Test system: human mononuclear cells (PBMC) stimulated with staphylococcal enterotoxin B (SEB)
Assay: cells
Type: cell-based
Conditions: read-out: EC50 Cytokine Release IL-1β
parameter measured: pEC50
Scale explanation: pEC50 corresponds to minus log10 of a concentration expressed in moles per litre.

Challenge: For `CS(=O)(=O)c1cccc(C[C@H](NC(=O)c2c(Cl)cc3c(c2Cl)CCN(C(=O)c2ccc4ccoc4c2)C3)C(=O)O)c1` , what is its reported pEC50?
Response given: 6.44

* * *

System: SEB stimulated IL-2 release in whole human blood
Experiment: cells
Format: cell-based
Settings: read-out: IC50 inhibition of SEB stimulated IL-2 release in whole human blood
parameter measured: pIC50
Scale explanation: pIC50 corresponds to minus log10 of a concentration expressed in moles per litre.

Challenge: For CS(=O)(=O)c1cccc(C[C@H](NC(=O)c2c(Cl)cc3c(c2Cl)CCN(C(=O)c2ccc4ccoc4c2)C3)C(=O)O)c1 [Compound 12] , what is its reported pIC50?
Response given: 7.16
